- System tested: EGFR (d746-750 T790M C797S) (Homo sapiens (Human), UniProt P00533, C797S/DEL746-750/T790M)
- Sequence (P00533 other isoform, or with tags, fused parts or gaps T790M/C797S/del 1-694/del 746-750 limits assumed): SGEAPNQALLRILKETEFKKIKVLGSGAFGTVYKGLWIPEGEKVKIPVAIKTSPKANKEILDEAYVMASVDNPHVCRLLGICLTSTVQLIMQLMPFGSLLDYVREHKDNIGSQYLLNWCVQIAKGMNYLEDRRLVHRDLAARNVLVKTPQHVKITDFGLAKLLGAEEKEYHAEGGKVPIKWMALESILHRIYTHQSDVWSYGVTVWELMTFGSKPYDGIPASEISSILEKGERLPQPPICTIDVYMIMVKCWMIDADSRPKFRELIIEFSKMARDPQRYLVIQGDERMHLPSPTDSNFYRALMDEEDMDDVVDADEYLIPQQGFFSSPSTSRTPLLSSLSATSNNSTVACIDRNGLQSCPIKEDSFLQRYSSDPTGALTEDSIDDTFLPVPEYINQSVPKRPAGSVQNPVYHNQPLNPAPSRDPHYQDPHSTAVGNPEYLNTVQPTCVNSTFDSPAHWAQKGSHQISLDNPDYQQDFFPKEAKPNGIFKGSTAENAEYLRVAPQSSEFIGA
- Experimental details: Biochemical EGFR inhibition assay (TR-FRET, poly-GT substrate), EGFR d746-750 T790M C797S
- Condition set: 100 μM ATP
Property label: IC50 (nM)

>>> number("Cc1nn(C)cc1-c1cc(C(=O)/N=c2\\[nH]c3ccccc3n2C2CCCC2)ccn1")
14.2
>>> number("CN1CCC(c2ccc3c(c2)[nH]/c(=N\\C(=O)c2ccnc(-c4cccnc4)c2)n3C2CCCC2)CC1")
2.5
>>> number("Cc1ccc2[nH]/c(=N\\C(=O)c3ccnc(-c4cnn(C)c4)c3)n(CC(C)(C)O)c2c1")
22.8
>>> number("Cn1cc(-c2cc(C(=O)/N=c3\\[nH]c4ccccc4n3CC(C)(C)CO)ccn2)cn1")
15.8
>>> number("COC(=O)Cc1ccc2c(c1)[nH]/c(=N\\C(=O)c1ccnc(-c3cccnc3)c1)n2CC(C)(C)O")
4.1
>>> number("CN1CCC(c2ccc3c(c2)[nH]/c(=N\\C(=O)c2ccnc(-c4cnn(C)c4)c2)n3CC(C)(C)O)CC1")
4.9
>>> number("COc1ccncc1-c1cc(C(=O)/N=c2\\[nH]c3cc(C4CCN(C(C)=O)CC4)ccc3n2CC(C)(C)O)ccn1")
1.2
>>> number("Cn1cc(-c2cc(C(=O)/N=c3\\[nH]c4ccccc4n3C3CCCC3)ccn2)cn1")
9.9
>>> number("Cc1c(-c2cc(C(=O)/N=c3\\[nH]c4ccccc4n3C3CCCC3)ccn2)cnn1C")
4.7
>>> number("CC(=O)N1CCC(c2ccc3c(c2)[nH]/c(=N\\C(=O)c2ccnc(-c4cnn(C)c4)c2)n3C2CCCC2)CC1")
5
>>> number("Cc1ccc2c(c1)[nH]/c(=N\\C(=O)c1ccnc(-c3cnn(C)c3)c1)n2CC(C)(C)O")
8.6
>>> number("Cn1cc(-c2cc(C(=O)/N=c3\\[nH]c4ccccc4n3[C@H]3CC[C@@H](O)C3)ccn2)cn1")
49
>>> number("CC(=O)N1CCC(c2ccc3c(c2)[nH]/c(=N\\C(=O)c2ccnc(-c4cnn(C)c4C)c2)n3CC(C)(C)O)CC1")
4.4
>>> number("Cn1cc(-c2cc(C(=O)/N=c3\\[nH]c4ccccc4n3C3CCCCC3)ccn2)cn1")
2
>>> number("CN1CCC(c2ccc3c(c2)[nH]/c(=N\\C(=O)c2ccnc(-c4cnn5cccnc45)c2)n3CC(C)(C)O)CC1")
0.6
>>> number("CC(C)(O)Cn1/c(=N/C(=O)c2ccnc(-c3cccnc3)c2)[nH]c2cc(C3CCCOC3)ccc21 (stereo not shown)")
6.6
